- Tested Target: recombinant human transglutaminase 2 (Homo sapiens)
- Construct: purchased Zedira T022
- Sequence (P21980 whole entry): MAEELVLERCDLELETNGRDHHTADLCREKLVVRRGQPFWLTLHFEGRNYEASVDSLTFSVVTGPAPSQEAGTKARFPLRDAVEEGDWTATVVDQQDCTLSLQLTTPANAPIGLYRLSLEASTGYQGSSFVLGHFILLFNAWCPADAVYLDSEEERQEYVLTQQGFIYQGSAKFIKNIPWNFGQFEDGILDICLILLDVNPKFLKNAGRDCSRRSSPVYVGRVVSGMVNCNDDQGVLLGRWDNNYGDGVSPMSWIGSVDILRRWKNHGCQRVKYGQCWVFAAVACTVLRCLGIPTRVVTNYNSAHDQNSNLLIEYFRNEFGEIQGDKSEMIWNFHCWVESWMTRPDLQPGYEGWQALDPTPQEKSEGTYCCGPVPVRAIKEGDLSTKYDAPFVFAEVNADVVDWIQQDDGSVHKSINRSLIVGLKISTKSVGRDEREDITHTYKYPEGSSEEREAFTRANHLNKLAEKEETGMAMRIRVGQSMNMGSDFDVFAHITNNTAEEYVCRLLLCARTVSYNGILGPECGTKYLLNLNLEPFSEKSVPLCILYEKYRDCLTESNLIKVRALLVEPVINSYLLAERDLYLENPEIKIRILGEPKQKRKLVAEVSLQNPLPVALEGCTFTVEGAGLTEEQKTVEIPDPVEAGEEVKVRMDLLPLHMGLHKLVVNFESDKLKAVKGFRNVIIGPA
- Assay Summary: Transglutaminase assay (dansylcadaverine incorporation into dimethylcasein, DCC-assay)
- Type: biochemical
- Experimental Parameters: recombinant human TG2 10 nM, dansylcadaverine/dimethylcasein, 37° C.
- Experimental: For the determination of potency of inhibitors against tissue transglutaminase, the incorporation of dansylcadaverine into dimethylcasein (Zedira product T036, Lorand et al., Anal Biochem, 1971, 44:221-31) was measured using recombinant human transglutaminase 2 (Zedira Product T022). […] Increase in fluorescence is measured using λex=330 nm and λem=500 nm at 37° C. for 30 min. […] Analysis of enzymatic activity is performed by calculation of the slope of an increase in fluorescence intensity. […]
pIC50: −log10 of the molar value.
Measured pIC50 values are reported for all entries that follow.

Molecule: Cc1c(C(=O)N[C@@H](CC/C=C/S(C)(=O)=O)C(=O)Nc2cccn(CC(=O)NC3C4CC5CC(C4)CC3C5)c2=O)oc2ccccc12 (some centres unmarked) [III-90]
pIC50: > 7.60
--
Molecule: COC(=O)/C=C/CC[C@H](NC(=O)c1cnnn1C)C(=O)Nc1cccn(CC(=O)N[C@@H]2C[C@@H]3CC[C@H]2C3)c1=O [III-116]
pIC50: > 7.60
--
Molecule: COC(=O)/C=C/CC[C@H](NC(=O)c1nc2ccccc2[nH]1)C(=O)Nc1cccn(CC(=O)NC2C3CC4CC(C3)CC2C4)c1=O (some centres unmarked) [III-11]
pIC50: 6.60 to 7.60
--
Molecule: COC(=O)/C=C/CC[C@H](NC(=O)c1cc2c(F)c(F)ccc2[nH]1)C(=O)Nc1cccn(CC(=O)NC2C3CC4CC(C3)CC2C4)c1=O (some centres unmarked) [III-9]
pIC50: > 7.60
--
Molecule: COC(=O)/C=C/CC[C@H](NC(=O)C1CCc2ccccc2C1)C(=O)Nc1cccn(CC(=O)NC2C3CC4CC2CC(C(=O)N(C)C)(C4)C3)c1=O (some centres unmarked) [III-137]
pIC50: 5.82 to 6.60
--
Molecule: CC(C)NC(=O)/C=C/CC[C@H](NC(=O)c1c[nH]c2ccccc12)C(=O)Nc1cccn(CC(=O)NC23CC(C2)C3)c1=O [III-140]
pIC50: 6.60 to 7.60
--
Molecule: COC(=O)/C=C/CC[C@H](NC(=O)c1cnc(NC(C)=O)s1)C(=O)Nc1cccn(CC(=O)NC23CC(C2)C3)c1=O [III-162]
pIC50: 5.82 to 6.60
--
Molecule: COC(=O)/C=C/CC[C@H](NC(=O)c1cc2cccc(F)c2s1)C(=O)Nc1cccn(CC(=O)NC2C3CC4CC(C3)CC2C4)c1=O (some centres unmarked) [III-7]
pIC50: > 7.60
--
Molecule: COC(=O)/C=C/CC[C@H](NC(=O)c1cnnn1C)C(=O)Nc1cccn(CC(=O)N[C@H]2C[C@H]3CC[C@]2(C)C3(C)C)c1=O [III-121]
pIC50: > 7.60
--
Molecule: COC(=O)/C=C/CC[C@H](NC(=O)c1oc2ccccc2c1C)C(=O)Nc1cccn(CC(=O)NC2CC3C=CC2C3)c1=O (some centres unmarked) [III-66]
pIC50: 6.60 to 7.60

Query block: Could you tell me which pIC50 is on file for CCC12CC3CC(C1)CC(NC(=O)Cn1cccc(NC(=O)[C@H](CC/C=C/C(=O)OC)NC(=O)c4oc5ccccc5c4C)c1=O)(C3)C2 [III-48] ?
Result block: 6.60 to 7.60

Query block: Could you tell me which pIC50 is on file for COC(=O)/C=C/CC[C@H](NC(=O)c1cncn1C)C(=O)Nc1cccn(CC(=O)N[C@H]2C[C@H]3CC[C@]2(C)C3(C)C)c1=O [III-60] ?
Result block: > 7.60

Query block: Could you tell me which pIC50 is on file for COC(=O)/C=C/CC[C@H](NC(=O)c1oc2ccccc2c1C)C(=O)Nc1cccn(CC(=O)N[C@@H]2C[C@@H]3C[C@H]([C@H]2C)C3(C)C)c1=O [III-69] ?
Result block: > 7.60

Query block: Could you tell me which pIC50 is on file for COC(=O)/C=C/CC[C@H](NC(=O)c1noc(C)n1)C(=O)Nc1cccn(CC(=O)NC23CC(C2)C3)c1=O [III-168] ?
Result block: 5.82 to 6.60

Values from patent US20240317708A1
